SYSTEM_TESTED: T1, recombinant extracellular domain of the predominant human CD22-beta isoform (CD22-ECD) (human, UniProt P20273 20-687, CHO-expressed glycoprotein. Capture on an SA chip implies biotinylation, but the patent does not state it for SPR.)
T1 construct: Expressed in CHO-3E7 cells, IMAC and SEC purified, monomeric fraction; Results say it was immobilized onto a CM5 dextran chip; also called human CD22-ECD; hCD22 ecto-domain
T1 sequence: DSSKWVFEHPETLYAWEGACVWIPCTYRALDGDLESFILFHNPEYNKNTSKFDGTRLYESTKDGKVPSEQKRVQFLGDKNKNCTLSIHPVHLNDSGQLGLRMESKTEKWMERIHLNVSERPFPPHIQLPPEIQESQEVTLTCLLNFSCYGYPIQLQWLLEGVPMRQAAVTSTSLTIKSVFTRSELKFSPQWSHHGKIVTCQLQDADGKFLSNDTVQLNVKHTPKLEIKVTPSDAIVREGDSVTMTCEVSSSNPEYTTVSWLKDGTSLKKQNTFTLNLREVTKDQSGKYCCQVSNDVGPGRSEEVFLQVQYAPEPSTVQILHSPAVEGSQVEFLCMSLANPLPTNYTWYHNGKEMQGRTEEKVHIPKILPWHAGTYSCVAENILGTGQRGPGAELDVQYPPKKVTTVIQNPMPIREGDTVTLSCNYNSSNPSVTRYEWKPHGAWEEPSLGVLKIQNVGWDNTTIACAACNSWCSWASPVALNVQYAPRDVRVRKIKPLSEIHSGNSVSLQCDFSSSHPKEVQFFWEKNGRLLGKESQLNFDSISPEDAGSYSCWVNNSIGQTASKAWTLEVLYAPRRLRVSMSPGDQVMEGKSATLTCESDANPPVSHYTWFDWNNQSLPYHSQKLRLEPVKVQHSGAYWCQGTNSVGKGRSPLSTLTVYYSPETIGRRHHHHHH
ASSAY_PROTOCOL: SPR, Biacore T200, VHH over immobilized CD22-ECD
Experimental: For surface Plasmon resonance, 21 selected VHHs were passed though size exclusion columns, superdex 75 (GE Healthcare), respectively, in 10 mM HEPES, pH 7.4, containing 150 mM NaCl, 3 mM EDTA, monomeric sdAb fractions were collected and protein concentrations were determined by measuring absorbance at 280 nm (A280). Analysis were performed with Biacore T200 instrument (GE Healthcare). […] Data were analysed with BIAevaluation 4.1 software. […]
What pKd was measured for each of the following?
One number for each entry, as −log10 of the molar value.

>  <BINDER>
hCD22100ng-2 (VHH, single biotin at the VHH C-terminal (biotinylation signal sequence), llama VHH, expressed in E. coli TG1, IMAC purified, monomeric SEC fraction; also called VHH # 2) VHH: QVKLEESGGGLVQPGGSLRLSCTVSGVTFDYYVMGWFRQAPGKEREVVSCMRNSDGVTYYADSVKGRFTISRDNAKNTVYLQMNSLKPDDTAIYYCAVDKPFYDGGNYYTCPVDFDSWGQGTQVTVSS

>  <MEASURED>
8.56

$$$$
>  <BINDER>
hCD22100ng-66 (VHH, single biotin at the VHH C-terminal (biotinylation signal sequence), llama VHH, expressed in E. coli TG1, IMAC purified, monomeric SEC fraction; also called VHH # 4) VHH: QVQLVESGGGLVQPGGSLRLSCTVSGFSLDYYVMGWFRQAPGKEREVVSCISSSDGATYYPDSVKGRFTISRDNAKKTVYLQMNALKPEDTAIYYCAVDKPFYDGGSYYTCPVDFGSWGQGTQVTVSS

>  <MEASURED>
9.03

$$$$
>  <BINDER>
hCD22pas-33 (VHH, single biotin at the VHH C-terminal (biotinylation signal sequence), llama VHH, expressed in E. coli TG1, IMAC purified, monomeric SEC fraction; also called VHH # 7) VHH: QVKLEESGGGLVQPGGSLRLSCTVSGFTLDSYVMGWFRQAPGKEREAVSCISSSDGVTYYADSVKGRFTISRDNAKNTYLQMNSLKPEDTAIYYCAVDKPFYDGGYLYTCPVDFDSWGQGIQVTVSS

>  <MEASURED>
8.59

$$$$

Now examine the next entry.
Query: For the binder hCD22pas-32 (VHH, single biotin at the VHH C-terminal (biotinylation signal sequence), llama VHH, expressed in E. coli TG1, IMAC purified, monomeric SEC fraction; also called VHH # 15; 6-hCD22 pas-32) VHH: QVQLVESGGGLVQAGGSLRLSCAVSGRIFRSYVLGWFRQAPGKERELVARIGWSDTYYADSVKGRFTISRDNAKNTVDLQMNSLKPEDTAVYYCAANSPPYGPQRDEFGYWGQGTQVTVSS , what pKd is on record?
Result: 7.63
